# Measured target: UniProtKB P06401
# Sequence (P06401 whole entry): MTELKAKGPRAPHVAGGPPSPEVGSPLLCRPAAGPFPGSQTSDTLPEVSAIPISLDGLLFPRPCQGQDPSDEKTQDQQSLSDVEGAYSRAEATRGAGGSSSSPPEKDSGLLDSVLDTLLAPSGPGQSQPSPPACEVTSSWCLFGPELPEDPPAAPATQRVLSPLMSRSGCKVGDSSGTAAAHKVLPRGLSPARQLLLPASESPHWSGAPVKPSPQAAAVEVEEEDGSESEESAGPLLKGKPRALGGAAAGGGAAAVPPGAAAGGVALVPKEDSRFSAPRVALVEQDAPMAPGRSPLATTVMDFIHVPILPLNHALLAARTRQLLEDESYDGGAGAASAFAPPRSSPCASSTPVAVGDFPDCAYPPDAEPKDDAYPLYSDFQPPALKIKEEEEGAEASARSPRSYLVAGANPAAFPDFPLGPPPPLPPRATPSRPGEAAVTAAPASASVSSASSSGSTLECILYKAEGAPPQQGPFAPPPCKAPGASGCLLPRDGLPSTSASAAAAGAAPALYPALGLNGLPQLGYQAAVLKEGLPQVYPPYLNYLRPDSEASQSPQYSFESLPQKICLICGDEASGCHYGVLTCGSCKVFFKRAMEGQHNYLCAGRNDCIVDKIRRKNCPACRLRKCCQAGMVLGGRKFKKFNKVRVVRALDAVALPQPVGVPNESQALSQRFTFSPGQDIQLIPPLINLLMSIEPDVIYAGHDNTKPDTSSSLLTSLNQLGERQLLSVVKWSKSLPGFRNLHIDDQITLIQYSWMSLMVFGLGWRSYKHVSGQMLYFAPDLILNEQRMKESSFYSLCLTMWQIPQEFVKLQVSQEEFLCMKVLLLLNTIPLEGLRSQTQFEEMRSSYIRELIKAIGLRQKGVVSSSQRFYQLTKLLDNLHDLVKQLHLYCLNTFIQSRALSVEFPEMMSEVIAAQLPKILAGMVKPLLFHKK
# Test protocol: Progesterone receptor-antagonistic action in stably transfected SK-N-MC cells, MMTV-LUC reporter (PR-B)
# Particulars: antagonistic potency vs 0.1 nmol/l promegestone, 24 hours
Property label: IC50 (nM)

Molecule: Cc1ccc(NC(=O)NCc2ccc([C@H]3C[C@@]4(C)[C@@H](CC[C@@]4(O)C(F)(F)C(F)(F)F)[C@@H]4CCC5=CC(=O)CCC5=C43)cc2)cc1
Result unit: nM
IC50: 0.6

Molecule: CC(O)c1cccc([C@H]2C[C@@]3(C)C(CC[C@@]3(O)C(F)(F)C(F)(F)F)C3CCC4=CC(=O)CCC4=C32)c1 (mixture of isomers)
Result unit: nM
IC50: 3

Molecule: C[C@]12C[C@H](c3ccc(CCc4ccncc4)cc3)C3=C4CCC(=O)C=C4CC[C@H]3[C@@H]1CC[C@@]2(O)C(F)(F)C(F)(F)F
Result unit: nM
IC50: 0.09

Molecule: C[C@]12C[C@H](c3ccc(COC(=O)Nc4ccc(F)cc4)cc3)C3=C4CCC(=O)C=C4CC[C@H]3[C@@H]1CC[C@@]2(O)C(F)(F)C(F)(F)F
Result unit: nM
IC50: 0.1

1 = CC1(c2ccc([C@H]3C[C@@]4(C)[C@@H](CC[C@@]4(O)C(F)(F)C(F)(F)F)[C@@H]4CCC5=CC(=O)CCC5=C43)cc2)CC1
2 = C[C@]12C[C@H](c3ccc(COC(=O)Nc4ccc(Cl)cc4)cc3)C3=C4CCC(=O)C=C4CC[C@H]3[C@@H]1CC[C@@]2(O)C(F)(F)C(F)(F)F
3 = CC(=O)c1cccc([C@H]2C[C@@]3(C)[C@@H](CC[C@@]3(O)C(F)(F)C(F)(F)F)[C@@H]3CCC4=CC(=O)CCC4=C32)c1
4 = CC1(c2cccc([C@H]3C[C@@]4(C)[C@@H](CC[C@@]4(O)C(F)(F)C(F)(F)F)[C@@H]4CCC5=CC(=O)CCC5=C43)c2)CC1
5 = C=CCNC(=O)NCc1ccc([C@H]2C[C@@]3(C)[C@@H](CC[C@@]3(O)C(F)(F)C(F)(F)F)[C@@H]3CCC4=CC(=O)CCC4=C32)cc1
Inquiry: Arrange the 5 molecules from largest to smallest IC50. Labels, ranked as asked.
Reply text: 4, 3, 5, 2, 1
(4: 7 nM, 3: 3 nM, 5: 0.8 nM, 2: 0.4 nM, 1: 0.012 nM)

a = C[C@]12C[C@H](c3ccc(CCc4cccnc4)cc3)C3=C4CCC(=O)C=C4CC[C@H]3[C@@H]1CC[C@@]2(O)C(F)(F)C(F)(F)F
b = C[C@]12C[C@H](c3ccc(CNC(=O)Nc4ccc(F)cc4)cc3)C3=C4CCC(=O)C=C4CC[C@H]3[C@@H]1CC[C@@]2(O)C(F)(F)C(F)(F)F
Inquiry: Which numeric IC50 is bigger, that of a or that of b ? Your answer should be the label attached to the chosen record.
Reply text: b

1 = C[C@]12C[C@H](c3ccc(COC(=O)NCc4ccccc4)cc3)C3=C4CCC(=O)C=C4CC[C@H]3[C@@H]1CC[C@@]2(O)C(F)(F)C(F)(F)F
2 = COc1ccc(NC(=O)NCc2ccc([C@H]3C[C@@]4(C)[C@@H](CC[C@@]4(O)C(F)(F)C(F)(F)F)[C@@H]4CCC5=CC(=O)CCC5=C43)cc2)cc1
3 = C[C@]12C[C@H](c3ccc(CNC(=O)NCCC(=O)O)cc3)C3=C4CCC(=O)C=C4CC[C@H]3[C@@H]1CC[C@@]2(O)C(F)(F)C(F)(F)F
4 = CC1(C)OCC(C)(c2ccc([C@H]3C[C@@]4(C)[C@@H](CC[C@@]4(O)C(F)(F)C(F)(F)F)[C@@H]4CCC5=CC(=O)CCC5=C43)cc2)CO1 [Example 15B]
Inquiry: Task for the reader: rank each entry by its IC50, from the minimum upward. Labels, ranked as asked.
Reply text: 4, 2, 1, 3
